Entry source: ChEMBL document CHEMBL3600313

Item-by-item account of Activity
Test system: Plasma
Assay: Nitric oxide release in human plasma using 2,3-diaminonaphthlene at 50 uM after 90 mins by fluorescence assay
Format: ADME, cell-free
Conditions: 1.5 h

smiles representation	Activity
Cc1ccc(-c2cc(CO[N+](=O)[O-])nn2-c2ccc(S(N)(=O)=O)cc2)cc1	0.3%

Q: Entry under review: Cc1ccc(-c2c(Cl)c(CO[N+](=O)[O-])nn2-c2ccc(S(N)(=O)=O)cc2)cc1 . Reported Activity?
Result: 0.5%

Q: Follow-up item: O=S(=O)(NO)c1ccccc1
Result: 0.3%

Q: Follow-up item: CC(=O)Oc1ccccc1C(=O)OCCCCO[N+](=O)[O-]
Result: 1.4%

---

Target: Prostaglandin G/H synthase 1 (Ovis aries, UniProt P05979)
Sequence (P05979 whole entry): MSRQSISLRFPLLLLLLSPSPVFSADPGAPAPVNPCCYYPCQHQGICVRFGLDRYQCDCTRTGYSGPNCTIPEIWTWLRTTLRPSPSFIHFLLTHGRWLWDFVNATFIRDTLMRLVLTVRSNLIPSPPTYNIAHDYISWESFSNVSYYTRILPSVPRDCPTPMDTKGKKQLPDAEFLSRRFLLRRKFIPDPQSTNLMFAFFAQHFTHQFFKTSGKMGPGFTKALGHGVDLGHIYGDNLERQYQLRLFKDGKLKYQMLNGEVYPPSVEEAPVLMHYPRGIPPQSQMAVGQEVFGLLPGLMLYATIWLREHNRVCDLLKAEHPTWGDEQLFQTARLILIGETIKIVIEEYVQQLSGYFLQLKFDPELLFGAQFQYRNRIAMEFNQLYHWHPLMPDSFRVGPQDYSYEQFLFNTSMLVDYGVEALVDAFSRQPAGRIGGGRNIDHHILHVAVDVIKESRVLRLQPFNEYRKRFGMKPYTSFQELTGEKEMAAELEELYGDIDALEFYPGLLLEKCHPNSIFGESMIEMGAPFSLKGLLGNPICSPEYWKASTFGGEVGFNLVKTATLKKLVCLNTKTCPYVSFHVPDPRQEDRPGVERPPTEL
Item-by-item account of IC50

smiles representation	measured result
Cc1ccc(-c2cc(CO)nn2-c2ccc(S(N)(=O)=O)cc2)cc1	> 100 µM

Q: Notebook entry, Prostaglandin G/H synthase 1 (Ovis aries, UniProt P05979) assay: IC50 of CC(=O)Oc1ccccc1C(=O)OCCCCO[N+](=O)[O-] = ?
Result: 65 µM

Q: Follow-up item: Cc1ccc(-c2cc(CO[N+](=O)[O-])nn2-c2ccc(S(N)(=O)=O)cc2)cc1
Result: > 100 µM

---

Biological target: Prostaglandin G/H synthase 2 (Homo sapiens, UniProt P35354)
Sequence (P35354 whole entry): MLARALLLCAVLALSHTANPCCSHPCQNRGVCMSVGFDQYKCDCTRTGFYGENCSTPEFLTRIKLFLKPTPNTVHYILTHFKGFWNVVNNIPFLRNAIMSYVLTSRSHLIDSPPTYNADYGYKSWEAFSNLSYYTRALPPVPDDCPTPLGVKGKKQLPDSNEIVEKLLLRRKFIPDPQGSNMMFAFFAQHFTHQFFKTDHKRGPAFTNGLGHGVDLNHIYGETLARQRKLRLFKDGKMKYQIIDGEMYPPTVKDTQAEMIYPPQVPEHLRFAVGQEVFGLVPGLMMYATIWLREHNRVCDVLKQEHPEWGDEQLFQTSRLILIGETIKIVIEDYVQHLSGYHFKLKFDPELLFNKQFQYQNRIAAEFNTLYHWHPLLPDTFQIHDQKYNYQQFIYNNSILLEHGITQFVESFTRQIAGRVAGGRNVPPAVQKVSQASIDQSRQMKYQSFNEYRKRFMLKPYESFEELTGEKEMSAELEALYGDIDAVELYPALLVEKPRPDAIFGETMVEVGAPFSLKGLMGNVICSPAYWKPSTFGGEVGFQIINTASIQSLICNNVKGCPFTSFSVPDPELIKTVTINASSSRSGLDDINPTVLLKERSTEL
Test: Inhibition of recombinant human COX-2 assessed as reduction of prostaglandin-G2 to prostaglandin-H2 and oxidation of 10-acetyl-3,7-dihydroxyphenoxazine to resorufin after 5 mins by fluorescence based assay
readout label: IC50

Examples with their reported IC50 follow.
smiles representation	IC50
Cc1ccc(-c2cc(CCl)nn2-c2ccc(S(N)(=O)=O)cc2)cc1	970 nM
Cc1ccc(-c2c(Cl)c(CCl)nn2-c2ccc(S(N)(=O)=O)cc2)cc1	220 nM
Cc1ccc(-c2cc(CO)nn2-c2ccc(S(N)(=O)=O)cc2)cc1	1270 nM
Cc1ccc(-c2cc(CO[N+](=O)[O-])nn2-c2ccc(S(N)(=O)=O)cc2)cc1	890 nM
CC(=O)Oc1ccccc1C(=O)OCCCCO[N+](=O)[O-]	45000 nM

Here is the next item to consider.
Q: Entry under review: Cc1ccc(-c2c(Cl)c(CO[N+](=O)[O-])nn2-c2ccc(S(N)(=O)=O)cc2)cc1 . Reported IC50?
Result: 280 nM

---

Experiment: Selectivity index, ratio of IC50 for ovine COX-1 to IC50 for recombinant human COX-2
readout label: Ratio IC50

Examples with their reported Ratio IC50 follow.
smiles representation	readout label	measured result
Cc1ccc(-c2cc(CO[N+](=O)[O-])nn2-c2ccc(S(N)(=O)=O)cc2)cc1	Ratio IC50	> 112
Cc1ccc(-c2cc(CCl)nn2-c2ccc(S(N)(=O)=O)cc2)cc1	Ratio IC50	> 103
Cc1ccc(-c2cc(CO)nn2-c2ccc(S(N)(=O)=O)cc2)cc1	Ratio IC50	> 78.7

Q: Entry under review: Cc1ccc(-c2c(Cl)c(CCl)nn2-c2ccc(S(N)(=O)=O)cc2)cc1 . Reported Ratio IC50?
Result: > 454

Q: Follow-up item: CC(=O)Oc1ccccc1C(=O)OCCCCO[N+](=O)[O-]
Result: 1.4

Q: Follow-up item: Cc1ccc(-c2c(Cl)c(CO[N+](=O)[O-])nn2-c2ccc(S(N)(=O)=O)cc2)cc1
Result: 218
